Form field: Dmax (one value per entry).
molecular target: HiBiT tagged Wee1 (Homo sapiens, UniProt P30291); experiment: Wee1 protein degradation assay (HiBiT assay); assay type: cell-based; conditions: engineered HT-1080 cells, 20 hours; maximum percentage of Wee1 degradation; read-out: HiBiT Wee1: Dmax
Sequence (P30291 whole entry): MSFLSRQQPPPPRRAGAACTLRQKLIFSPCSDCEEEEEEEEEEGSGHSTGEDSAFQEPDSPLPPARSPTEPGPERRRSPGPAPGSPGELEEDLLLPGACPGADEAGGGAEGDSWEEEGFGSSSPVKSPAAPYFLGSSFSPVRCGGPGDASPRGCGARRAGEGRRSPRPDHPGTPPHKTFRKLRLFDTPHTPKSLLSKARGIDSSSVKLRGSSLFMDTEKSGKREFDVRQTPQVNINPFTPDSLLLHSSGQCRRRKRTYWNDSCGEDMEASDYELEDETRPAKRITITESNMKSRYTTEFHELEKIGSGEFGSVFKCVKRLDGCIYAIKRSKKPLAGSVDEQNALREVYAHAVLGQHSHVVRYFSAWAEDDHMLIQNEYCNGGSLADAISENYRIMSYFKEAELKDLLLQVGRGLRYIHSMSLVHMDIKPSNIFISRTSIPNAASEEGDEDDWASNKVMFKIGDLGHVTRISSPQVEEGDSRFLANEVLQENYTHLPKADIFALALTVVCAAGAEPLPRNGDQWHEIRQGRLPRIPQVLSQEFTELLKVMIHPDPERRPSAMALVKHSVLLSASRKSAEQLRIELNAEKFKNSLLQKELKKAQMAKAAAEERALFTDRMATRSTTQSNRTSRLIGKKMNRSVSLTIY

# count of solved cases: 5
[
  {
    "compound": "C=CCn1c(=O)c2cnc(Nc3ccc(C4CCN(C[C@H]5CCN(c6ccc7c(c6)C(=O)N(C6CCC(=O)NC6=O)C7=O)C5)CC4)cc3)nc2n1-c1cccc(C(C)(C)O)n1 (some centres unmarked) [Compound 36]",
    "result": "50 to 75%"
  },
  {
    "compound": "O=C1CCC(N2C(=O)c3ccc(N4CCC(CN5CCc6cc(Nc7ncc8c(=O)n(-c9c(Cl)cccc9Cl)c9nccn9c8n7)ccc6C5)CC4)cc3C2=O)C(=O)N1 (centres unmarked) [Compound 1]",
    "result": "< 50%"
  },
  {
    "compound": "C=CCn1c(=O)c2cnc(Nc3ccc(C4CCN(CC5CCN(c6ccc(NC7CCC(=O)NC7=O)cn6)CC5)CC4)cc3)nc2n1-c1cccc(C(C)(C)O)n1 (centres unmarked) [Compound 84]",
    "result": "50 to 75%"
  },
  {
    "compound": "C=CCn1c(=O)c2cnc(Nc3ccc(N4CCN(CCOc5ccc6c(c5)C(=O)N(C5CCC(=O)NC5=O)C6=O)CC4)cc3)nc2n1-c1cccc(C(C)(C)O)n1 (centres unmarked) [Compound 63]",
    "result": "50 to 75%"
  },
  {
    "compound": "C=CCn1c(=O)c2cnc(Nc3ccc(C4CCN(C5CN(c6ccc(NC7CCC(=O)NC7=O)cc6F)C5)CC4)cc3)nc2n1-c1cccc(C(C)(C)O)n1 (centres unmarked) [Compound 148]",
    "result": "> 75%"
  }
]

Can you look up Dmax on HiBiT tagged Wee1 (Homo sapiens, UniProt P30291) for C=CCn1c(=O)c2cnc(Nc3ccc(N4CCN(CC5CCN(c6ccc7c(c6)CN(C6CCC(=O)NC6=O)C7=O)CC5)CC4)cc3)nc2n1-c1cccc(C(C)(C)O)n1 (centres unmarked) [Compound 25] ?
50 to 75%

State its Dmax on HiBiT tagged Wee1 (Homo sapiens, UniProt P30291): C=CCn1c(=O)c2cnc(Nc3ccc(N4CCC(CN5CCN(c6ccc(NC7CCC(=O)NC7=O)cc6Cl)CC5)CC4)cc3)nc2n1-c1cccc(C(C)(C)O)n1 (centres unmarked) [Compound 147]
> 75%

Provide value of Dmax for this record tested with HiBiT tagged Wee1 (Homo sapiens, UniProt P30291): O=C1CCC(N2C(=O)c3ccc(N4CCC(CCN5CCN(c6ccc(Nc7ncc8c(=O)n(-c9c(Cl)cccc9Cl)c9nccn9c8n7)cc6)CC5)CC4)cc3C2=O)C(=O)N1 (centres unmarked) [Compound 4]
< 50%

Form entry - test system: HiBiT tagged Wee1 (Homo sapiens, UniProt P30291); read-out: Dmax; compound: C=CCn1c(=O)c2cnc(Nc3ccc(N4CCC(N(C)C5CCN(c6cccc7c6n(C)c(=O)n7C6CCC(=O)NC6=O)CC5)CC4)cc3)nc2n1-c1cccc(C(C)(C)O)n1 (centres unmarked) [Compound 98]
50 to 75%

# returns recorded Dmax (system: HiBiT tagged Wee1 (Homo sapiens, UniProt P30291)) for Cc1cc(Nc2ncc3c(n2)N(C)CN(c2c(Cl)cccc2Cl)C3=O)ccc1N1CCC(CN2CCN(c3ccc4c(c3)CN(C3CCC(=O)NC3=O)C4=O)CC2)CC1 (centres unmarked) [Compound 34]
< 50%

API: value(readout=Dmax, system=HiBiT tagged Wee1 (Homo sapiens, UniProt P30291)) for record C=CCn1c(=O)c2cnc(Nc3ccc(C4CCN(CC5CCN(c6ccc(NC7CCC(=O)NC7=O)cc6F)CC5)CC4)cc3)nc2n1-c1cccc(C(C)(C)O)n1 (centres unmarked) [Compound 73]
> 75%

The measured values listed here are drawn from patent US20250049798A1.
